- Tested on: BDF1 mice, P388 leukemia ip, median survival T/C
- EXPERIMENT DESCRIPTION: NCI In Vivo Anticancer Drug Screen. Data for tumor model P388 Leukemia (intraperitoneal) in B6D2F1 (BDF1) mice
- CONDITION INFO: endpoint: median survival time; dose: 50.0 mg/kg/injection; schedule: Q01DX009 (ip); vehicle: water
- Protocol: The antitumor activity of compounds was measured in mice bearing transplantable tumors. Survival or tumor size were measured and the results are expressed as the measurement made in the treated group (T) divided by the measurement made in the vehicle treated control group (C). The tumor model used in this assay is P388 Leukemia (intraperitoneal) in B6D2F1 (BDF1) mice
Toxic doses and inconclusive results are not listed. Rule for the calls: active = survival T/C of 150% or more; inactive = T/C below 125% in these data.
Classes used: T (active), F (inactive)

[
  {
    "MOLECULE": "CC(=O)Oc1cc(-c2ccccc2)c(OC(C)=O)cc1-c1ccccc1",
    "CLASS NAME": "F"
  },
  {
    "MOLECULE": "C=CCCC(=O)OC(C)(C)C",
    "CLASS NAME": "F"
  },
  {
    "MOLECULE": "NC(=S)N/N=C\\c1c[nH]c2nccnc12",
    "CLASS NAME": "F"
  },
  {
    "MOLECULE": "COc1ccc(C2C=C(c3ccc4c(c3)OCO4)Oc3c2c(=O)oc2ccccc32)cc1OC (stereo unspecified)",
    "CLASS NAME": "F"
  },
  {
    "MOLECULE": "O=c1[nH]c(=O)c2nccnc2[nH]1",
    "CLASS NAME": "F"
  },
  {
    "MOLECULE": "c1ccc(Cn2ccnc2)cc1",
    "CLASS NAME": "F"
  },
  {
    "MOLECULE": "C=CC[N+](C)(CC=C)CC[N+](C)(CC=C)CC=C",
    "CLASS NAME": "F"
  },
  {
    "MOLECULE": "COC(=O)C(CO)NC(=O)OCc1ccccc1 (stereo unspecified)",
    "CLASS NAME": "F"
  },
  {
    "MOLECULE": "CC(=N\\O)/C(C)=N/O.CC(=N\\O)/C(C)=N/O.O=C(O)C1CC[N-]CC1.O=C(O)C1CC[N-]CC1.O=C(O)C1CC[N-]CC1.O=C(O)C1CC[N-]CC1.[Cl-].[Cl-].[Cl][Rh][Cl].[Rh+3]",
    "CLASS NAME": "F"
  },
  {
    "MOLECULE": "O.O=c1[nH]cc(Cl)c(=O)[nH]1.[NH2-].[NH2-].[Pt+2]",
    "CLASS NAME": "T"
  },
  {
    "MOLECULE": "Nc1nccnc1C(=O)O",
    "CLASS NAME": "F"
  }
]

====

Listing of recorded T/C by entry.
- Test system: BDF1 mice, P388 leukemia ip, median survival T/C
- EXPERIMENT DESCRIPTION: NCI In Vivo Anticancer Drug Screen. Data for tumor model P388 Leukemia (intraperitoneal) in B6D2F1 (BDF1) mice
- CONDITION INFO: endpoint: median survival time; dose: 200.0 mg/kg/injection; schedule: Q01DX001 (ip); vehicle: saline with Tween-80; higher = longer survival
Toxic doses and inconclusive results are not listed.

[
  {
    "COMPOUND": "CC(=O)Nc1ccc(NNCc2ccccc2)c(N)c1",
    "T/C": "96 % of control"
  },
  {
    "COMPOUND": "CC(C)(C1=CC=CS1(=O)=O)C1=CC=C(C(C)(C)C2=CC=CS2(=O)=O)S1(=O)=O",
    "T/C": "94 % of control"
  },
  {
    "COMPOUND": "CCCCCCCCCCCC1=NC(CO)(CO)CO1",
    "T/C": "104 % of control"
  },
  {
    "COMPOUND": "COc1cc(/C=N/N=C(\\N)N[N+](=O)[O-])cc(OC)c1OC",
    "T/C": "90 % of control"
  },
  {
    "COMPOUND": "O=C(CC(O)(C(F)(F)F)C(F)(F)F)c1cccc(Cl)c1",
    "T/C": "113 % of control"
  },
  {
    "COMPOUND": "Cc1ccc(N2CCN(C3=CCC(C(C)C)CC3)CC2)cc1Cl (configuration not stated)",
    "T/C": "105 % of control"
  },
  {
    "COMPOUND": "CC(C)(C)c1cccc(C(C)(C)C)c1",
    "T/C": "94 % of control"
  },
  {
    "COMPOUND": "CC(C)(O)c1cccc(C(=O)O)c1Sc1ccccc1",
    "T/C": "95 % of control"
  },
  {
    "COMPOUND": "CC1CC2OC(=O)C3=C2C(CCC3)C12CC(c1ccoc1)OC2=O (configuration not stated)",
    "T/C": "116 % of control"
  },
  {
    "COMPOUND": "Cc1ccc(NC(=O)C(C)(C)C)c(C(O)(C(F)(F)F)C(F)(F)F)c1",
    "T/C": "106 % of control"
  },
  {
    "COMPOUND": "CC1(C)CCCC(C(Cc2ccc3ccccc3n2)c2ccccc2)C1=O (configuration not stated)",
    "T/C": "96 % of control"
  },
  {
    "COMPOUND": "CC(C)(C)c1cc(C(=O)O)c(Sc2c(C(=O)O)cc(C(C)(C)C)cc2C(C)(C)O)c(C(C)(C)O)c1",
    "T/C": "101 % of control"
  }
]
